The measured values listed here are drawn from the supplement of paper PMC10307832.

- Tested on: COR-L23
- assay-protocol: relative viability (nuclei count vs DMSO), 5 days (fraction); higher = more cells survive
- condition-info: first compound 0.04 µM
Threshold 0.4. relative viability below it: true. relative viability at it or above: false.

* Cc1sc2c(c1C)C(c1ccc(Cl)cc1)=N[C@@H](CC(=O)OC(C)(C)C)c1nnc(C)n1-2 [JQ1] + N=C(N)NC(=N)NCCc1ccccc1 [Phenformin] (partner 250 µM) | true
* Cc1sc2c(c1C)C(c1ccc(Cl)cc1)=N[C@@H](CC(=O)OC(C)(C)C)c1nnc(C)n1-2 [JQ1] + Nc1ncn([C@H]2C[C@H](O)[C@@H](CO)O2)c(=O)n1 [Decitabine] (partner 2 µM) | false
* Cc1sc2c(c1C)C(c1ccc(Cl)cc1)=N[C@@H](CC(=O)OC(C)(C)C)c1nnc(C)n1-2 [JQ1] + Cc1nc(Nc2ncc(C(=O)Nc3c(C)cccc3Cl)s2)cc(N2CCN(CCO)CC2)n1 [Dasatinib] (partner 0.075 µM) | false
* Cc1sc2c(c1C)C(c1ccc(Cl)cc1)=N[C@@H](CC(=O)OC(C)(C)C)c1nnc(C)n1-2 [JQ1] + O=C(c1cc(Cc2n[nH]c(=O)c3ccccc23)ccc1F)N1CCN(C(=O)C2CC2)CC1 [Olaparib] (partner 8 µM) | true
* Cc1sc2c(c1C)C(c1ccc(Cl)cc1)=N[C@@H](CC(=O)OC(C)(C)C)c1nnc(C)n1-2 [JQ1] + CC(=O)Nc1cccc(-n2c(=O)n(C3CC3)c(=O)c3c(Nc4ccc(I)cc4F)n(C)c(=O)c(C)c32)c1 [Trametinib] (partner 0.02 µM) | false
* Cc1sc2c(c1C)C(c1ccc(Cl)cc1)=N[C@@H](CC(=O)OC(C)(C)C)c1nnc(C)n1-2 [JQ1] + C[C@]1(O)C[C@@H](c2nc(-c3ccc4ccc(-c5ccccc5)nc4c3)c3c(N)nccn32)C1 [Linsitinib] (partner 1 µM) | false
* Cc1sc2c(c1C)C(c1ccc(Cl)cc1)=N[C@@H](CC(=O)OC(C)(C)C)c1nnc(C)n1-2 [JQ1] + COc1cccc2cc(-c3nc([C@H]4CC[C@H](C(=O)O)CC4)n4ncnc(N)c34)[nH]c12 [OSI-027] (partner 0.5 µM) | false
* Cc1sc2c(c1C)C(c1ccc(Cl)cc1)=N[C@@H](CC(=O)OC(C)(C)C)c1nnc(C)n1-2 [JQ1] + O=C(CCCCCCC(=O)Nc1ccccc1)NO [Vorinostat] (partner 1 µM) | false
* Cc1sc2c(c1C)C(c1ccc(Cl)cc1)=N[C@@H](CC(=O)OC(C)(C)C)c1nnc(C)n1-2 [JQ1] + Cc1cc(Nc2cc(N3CCN(C)CC3)nc(Sc3ccc(NC(=O)C4CC4)cc3)n2)n[nH]1 [Tozasertib] (partner 0.1 µM) | true
* Cc1sc2c(c1C)C(c1ccc(Cl)cc1)=N[C@@H](CC(=O)OC(C)(C)C)c1nnc(C)n1-2 [JQ1] + CC(C)C[C@H](NC(=O)[C@H](Cc1ccccc1)NC(=O)c1cnccn1)B(O)O [Bortezomib] (partner 0.002 µM) | false
